Each record here notes measured Papp B→A.
Protocol description: Caco-2 permeability study (Examples 1, 2 and 4, Table 3)
Type: in vitro ADME, human
Protocol conditions: Caco-2, Table 3, n = 3; read-out: Papp BA
Numbered stars: 1 amine (or outer) side, 2 acyl side, 3 side chain; on linkers, the order of the positions; unused ones are H or OH. Square brackets hold non-standard residues; d marks the D form. Peptide text beside a SMILES is read from it. X3 = CCCCCCOC(=O)N=C(NCCC[C@H](C(=O)[*:2])N(C)[*:1])NC(=O)OCCCCCC; X1 = CCCCCCOC(=O)N=C(NCCC[C@@H](N[*:1])C(=O)[*:2])NC(=O)OCCCCCC; NMeA = CN[C@@H](C)C(=O)O

CCCCCCOC(=O)N=C(NCCC[C@H]1NC(=O)[C@H](C)N(C)C(=O)[C@H](C)N(C)C(=O)[C@H](C)NC(=O)[C@H](CC(=O)OC)NC(=O)CNC1=O)NC(=O)OCCCCCC [Peptide 23P, c(r(Hoc)2GD(OMe)A*A*A)] (cyclo(A[NMeA][NMeA][X1]GD(OMe)))
74.8 ×10⁻⁶ cm/s

Exercise: Consider the molecule CCCCCCOC(=O)N=C(NCCC[C@@H]1C(=O)NCC(=O)N[C@@H](CC(=O)OC)C(=O)N[C@@H](C)C(=O)N(C)[C@@H](C)C(=O)N[C@@H](C)C(=O)N1C)NC(=O)OCCCCCC [Peptide 5P, c(*r(Hoc)2GD(OMe)A*AA)] (cyclo(A[NMeA]A[X3]GD(OMe))) and give its measured Papp B→A.
Solution: 22.1 ×10⁻⁶ cm/s

* * *

Protocol description: Caco-2 permeability study (Examples 1, 2 and 4, Table 3)
Format: in vitro ADME, human
Protocol conditions: human, Caco-2; Table 3, n = 3
// reported Papp B→A at 150 min, 10 μg/ml per item
Give the quantity in ×10⁻⁶ cm/s, number only.

Reference set, count: 3
CC(C)[C@@H]1C(=O)N[C@@H](CCCNC(=N)N)C(=O)NCC(=O)N[C@@H](CC(=O)O)C(=O)N[C@@H](C)C(=O)N(C)[C@@H](C)C(=O)N1C [Peptide 29, c(*vRGDA*A)]
0.15
C[C@@H]1NC(=O)[C@H](CC(=O)O)NC(=O)CNC(=O)[C@@H](CCCNC(=N)N)NC(=O)[C@H](C)N(C)C(=O)[C@H](C)N(C)C1=O [Peptide 23, c(rGDA*A*A)]
1.34
C[C@@H]1NC(=O)[C@H](CC(=O)O)NC(=O)CNC(=O)[C@H](CCCNC(=N)N)NC(=O)[C@@H](C)N(C)C(=O)[C@H](C)N(C)C1=O [Peptide 12, c(*aRGDA*A)]
0.12

Exercise: State the recorded Papp B→A at 150 min, 10 μg/ml for this entry: C[C@@H]1NC(=O)[C@H](C)N(C)C(=O)[C@H](C)NC(=O)[C@H](CC(=O)O)NC(=O)CNC(=O)[C@@H](CCCNC(=N)N)N(C)C1=O [Peptide 5, c(*rGDA*AA)]
Solution: 0.42

* * *

The following compounds are shown together with reported Papp A→B values.
Protocol conditions: Caco-2, Papp (AB), replicate 2
Numbered stars: 1 amine (or outer) side, 2 acyl side, 3 side chain; on linkers, the order of the positions; unused ones are H or OH. Square brackets hold non-standard residues; d marks the D form. Peptide text beside a SMILES is read from it. X2 = CCCCCCOC(=O)N=C(N)NCCC[C@H](N[*:1])C(=O)[*:2]; dNMeV = CN[C@@H](C(=O)O)C(C)C; NMeA = CN[C@@H](C)C(=O)O
Only the number, expressed in ×10⁻⁶ cm/s, is required.

CCCCCCOC(=O)N=C(NCCC[C@@H]1NC(=O)[C@H](C(C)C)N(C)C(=O)[C@@H](Cc2ccccc2)NC(=O)[C@H](CC(=O)OC)NC(=O)CNC1=O)NC(=O)OCCCCCC
0.2

Now turn to the next compound.
Exercise: For CCCCCCOC(=O)N=C(N)NCCC[C@@H]1NC(=O)[C@@H](C(C)C)N(C)C(=O)[C@H](C)N(C)C(=O)[C@H](C)NC(=O)[C@H](CC(=O)OC)NC(=O)CNC1=O [#29P-Hoc] (cyclo(A[NMeA][dNMeV][X2]GD(OMe))) , what is its reported Papp A→B?
Solution: 0.3

* * *

// Papp B→A lookup, one value per entry
Protocol conditions: Caco-2, Papp (BA), replicate 3
Numbered stars: 1 amine (or outer) side, 2 acyl side, 3 side chain; on linkers, the order of the positions; unused ones are H or OH. Square brackets hold non-standard residues; d marks the D form. Peptide text beside a SMILES is read from it. X2 = CCCCCCOC(=O)N=C(N)NCCC[C@H](N[*:1])C(=O)[*:2]; dNMeV = CN[C@@H](C(=O)O)C(C)C; NMeA = CN[C@@H](C)C(=O)O
Kindly write the number and append the unit.

CCCCCCOC(=O)N=C(N)NCCC[C@@H]1NC(=O)[C@@H](C(C)C)N(C)C(=O)[C@H](C)N(C)C(=O)[C@H](C)NC(=O)[C@H](CC(=O)OC)NC(=O)CNC1=O [#29P-Hoc] (cyclo(A[NMeA][dNMeV][X2]GD(OMe)))
0.3 ×10⁻⁶ cm/s

API: the following record is the query input.
Exercise: Query: Papp B→A; subject: `CCCCCCOC(=O)N=C(NCCC[C@@H]1NC(=O)[C@H](C(C)C)N(C)C(=O)[C@@H](Cc2ccccc2)NC(=O)[C@H](CC(=O)OC)NC(=O)CNC1=O)NC(=O)OCCCCCC`
Solution: 0.3 ×10⁻⁶ cm/s

* * *

Catalogue of Papp A→B values
Protocol conditions: Caco-2, Papp (AB), Mean
Numbered stars: 1 amine (or outer) side, 2 acyl side, 3 side chain; on linkers, the order of the positions; unused ones are H or OH. Square brackets hold non-standard residues; d marks the D form. Peptide text beside a SMILES is read from it. X2 = CCCCCCOC(=O)N=C(N)NCCC[C@H](N[*:1])C(=O)[*:2]; dNMeV = CN[C@@H](C(=O)O)C(C)C; NMeA = CN[C@@H](C)C(=O)O

CCCCCCOC(=O)N=C(NCCC[C@@H]1NC(=O)[C@H](C(C)C)N(C)C(=O)[C@@H](Cc2ccccc2)NC(=O)[C@H](CC(=O)OC)NC(=O)CNC1=O)NC(=O)OCCCCCC [Cil.-P, c(f*VR(Hoc)2GD)]
0.3 ×10⁻⁶ cm/s

Exercise: Item CCCCCCOC(=O)N=C(N)NCCC[C@@H]1NC(=O)[C@@H](C(C)C)N(C)C(=O)[C@H](C)N(C)C(=O)[C@H](C)NC(=O)[C@H](CC(=O)OC)NC(=O)CNC1=O [#29P-Hoc] (cyclo(A[NMeA][dNMeV][X2]GD(OMe))) has what recorded Papp A→B?
Solution: 0.3 ×10⁻⁶ cm/s

* * *

Protocol description: physchem
Protocol conditions: pH 7.4, LogD, pH 7.4, reported value (mean or bound)
Measured attribute: logD at 1 h

Exercise: I would be grateful if you could share the reported logD at 1 h for CC(C)[C@H]1C(=O)N[C@@H](CCCN=C(N)N)C(=O)NCC(=O)N[C@@H](CC(=O)O)C(=O)N[C@H](Cc2ccccc2)C(=O)N1C [Cilengitide, cyclo(RGDf-(NMe)V)] .
Solution: < -1

* * *

Protocol conditions: pH 7.4, LogD, pH 7.4, reported value (mean or bound)
Numbered stars: 1 amine (or outer) side, 2 acyl side, 3 side chain; on linkers, the order of the positions; unused ones are H or OH. Square brackets hold non-standard residues; d marks the D form. Peptide text beside a SMILES is read from it. X2 = CCCCCCOC(=O)N=C(N)NCCC[C@H](N[*:1])C(=O)[*:2]; dNMeV = CN[C@@H](C(=O)O)C(C)C; NMeA = CN[C@@H](C)C(=O)O
Measured attribute: logD
Reply: number alone, nothing else.

CCCCCCOC(=O)N=C(N)NCCC[C@@H]1NC(=O)[C@@H](C(C)C)N(C)C(=O)[C@H](C)N(C)C(=O)[C@H](C)NC(=O)[C@H](CC(=O)OC)NC(=O)CNC1=O [#29P-Hoc] (cyclo(A[NMeA][dNMeV][X2]GD(OMe)))
1.85

Below: the item to evaluate.
Exercise: Request the reported logD associated with `CCCCCCOC(=O)N=C(NCCC[C@@H]1NC(=O)[C@H](C(C)C)N(C)C(=O)[C@@H](Cc2ccccc2)NC(=O)[C@H](CC(=O)OC)NC(=O)CNC1=O)NC(=O)OCCCCCC`
Solution: 3.95

* * *

Protocol description: Caco-2 bidirectional permeability with or without verapamil (Example 6)
Protocol conditions: human, Caco-2, pH 7.4, Papp (AB), replicate 1, 10 μM, 90 min, without verapamil
Measured attribute: Papp A→B at 90 min, 10 μM (×10⁻⁶ cm/s)
Only the number, expressed in ×10⁻⁶ cm/s, is required.

Exercise: Fill blank: measured Papp A→B at 90 min, 10 μM of the compound CC(C)[C@@H]1C(=O)N[C@@H](CCCNC(=N)N)C(=O)NCC(=O)N[C@@H](CC(=O)O)C(=O)N[C@@H](C)C(=O)N(C)[C@@H](C)C(=O)N1C [Peptide 29, c(*vRGDA*A)] is ____.
Solution: 1
